protocol description: Hepatocyte stability assay (human)
Assay type: in vitro ADME
conditions: cryopreserved hepatocytes, 10 μM compound, 0.5×10^6 cells/mL, 60 minutes, read-out: T½
Just so you know, the groups by half-life at 10 μM go like this: label 0 = under 0.5 h, label 1 = from 0.5 h up to 2 h, label 2 = 2 h and over

Please review the entries below; each comes with its answer.
compound: C=C(CC(=O)OC1CCCCC1)C(=O)OCCC(=O)O [Example 87]
group: label 2
--
compound: C=C(CC(=O)O[C@H](C)CCCCCC)C(=O)OCc1nn[nH]n1 [Example 161]
group: label 0
--
compound: C=C(CC(=O)O[C@@H](CCCCCC)C(F)(F)F)C(=O)OCC(=O)O [Example 182]
group: label 0
--
compound: C=C(CC(=O)OCCCCCC)C(=O)OCC(=O)O [Example 94]
group: label 1
--
compound: C=C(CC(=O)O[C@H](C)CCCCCC)C(=O)OCC(=O)O [Example 112]
group: label 0
--
compound: C=C(CC(=O)OC1CCCCCCC1)C(=O)OCc1nnn[nH]1 [Example 134]
group: label 1
--
compound: C=C(CC(=O)O[C@@H](C)CCCCCC)C(=O)OCCc1nnn[nH]1 [Example 129]
group: label 1
--
compound: C=C(CC(=O)O[C@@H](C)CCCCCC)C(=O)OCc1nn[nH]n1 [Example 164]
group: label 1
--
compound: C=C(CC(=O)OC1CCCCCCC1)C(=O)OCC(=O)O [Example 90]
group: label 2
--
compound: C=C(CC(=O)OCCCCCCCC)C(=O)OCCC(=O)O [Example 80]
group: label 0

**Q:** Which category fits this record: C=C(CC(=O)OC1CCCCCCC1)C(=O)OCCC(=O)O [Example 82]
**A:** label 1

**Q:** In plain terms, what class is C=C(CC(=O)OC1CCCCC1)C(=O)OCC(=O)O [Example 91] ?
**A:** label 2

**Q:** Class label required: C=C(CC(=O)O[C@H]1C[C@H]2CC[C@]1(C)C2(C)C)C(=O)OCC(=O)O [Example 179]
**A:** label 2

###

So I've got a bunch of molecules here, and I need their concentration at 8 h values.
protocol description: Mouse pharmacokinetic study, intravenous dosing
Format: in vivo
conditions: male, C57BL/6, mouse, iv; plasma, 10 mg/kg i.v., time 8 h; read-out: Parent compound concentration following intravenous administration

Record excerpt, results attached:
molecule: C=C(CC(=O)O[C@H](C)CCCCCC)C(=O)OCC(=O)O [Example 112]
result: 154 ng/mL
--
molecule: C=C(CC(=O)O[C@@H](C)CCCCCC)C(=O)OCc1nn[nH]n1 [Example 164]
result: < 4 ng/mL
--
molecule: C=C(CC(=O)OC)C(=O)OC [dimethyl itaconate, reference compound]
result: < 24 ng/mL
--
molecule: C=C(CC(=O)OC(C)(C)CCCCC)C(=O)OCC(=O)O [Example 193]
result: < 4 ng/mL
--
molecule: C=C(CC(=O)O[C@@H](CC)CCCCC)C(=O)OCC(=O)O [Example 170]
result: < 4 ng/mL
--
molecule: C=C(CC(=O)O[C@H](C)CCCCCC)C(=O)OCCC(=O)O [Example 88]
result: 4.2 ng/mL
--
molecule: C=C(CC(=O)OCCCCCC)C(=O)OCC(=O)O [Example 94]
result: < 0.8 ng/mL
--
molecule: C=C(CC(=O)OC1CCCCCCC1)C(=O)OCc1nnn[nH]1 [Example 134]
result: 1.7 ng/mL

Field: concentration at 8 h. Fill in for each record below.
1. C=C(CC(=O)O[C@@H](C)CCCCCC)C(=O)OCCc1nnn[nH]1 [Example 129]
2. C=C(CC(=O)OC12CC3CC(CC(C3)C1)C2)C(=O)OCC(=O)O [Example 172]
3. C=C(CC(=O)OC1C(C)(C)CC1(C)C)C(=O)OCC(=O)O [Example 169]
4. C=C(CC(=O)OCCCCCC)C(=O)OCC(=O)NS(=O)(=O)N(C)C [Example 118]
5. C=C(CC(=O)O[C@H]1C[C@H]2CC[C@]1(C)C2(C)C)C(=O)OCC(=O)O [Example 179]
6. C=C(CC(=O)O[C@H](CC)CCCCC)C(=O)OCC(=O)O [Example 178]
7. C=C(CC(=O)OC(C)(C)CCCCCC)C(=O)OCC(=O)O [Example 192]
8. C=C(CC(=O)OC1CCCCCCC1)C(=O)OC(C)c1nnn[nH]1 (stereo not shown) [Example 133]

**A:**
1. < 1.6 ng/mL
2. < 4 ng/mL
3. < 0.8 ng/mL
4. < 0.8 ng/mL
5. < 4 ng/mL
6. < 4 ng/mL
7. < 4 ng/mL
8. < 8 ng/mL

For every item in the list below, what is its measured concentration at 8 h?
1. C=C(CC(=O)OC1CCCCCCC1)C(=O)OCC(=O)O [Example 90]
2. C=C(CC(=O)OC1CC2(CCC2)C1)C(=O)OCC(=O)O [Example 96]
3. C=C(CC(=O)OC1CCCCC1)C(=O)OCc1nnn[nH]1 [Example 125]

**A:**
1: 1.2 ng/mL; 2: < 0.8 ng/mL; 3: < 0.8 ng/mL
